# credit: the supplement of paper PMC10567573

Recorded protein stability index, one value per entry.
B1: PLK2 (parent)
chain: YAELGQCSVFPATDAPEQFISQVT

- Variants of: B1
- Assay Notes: protein stability index of a GFP-peptide fusion (GPS, HEK-293T) (PSI 1-6); higher = more stable;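 also: lentivirally expressed fusions sorted by FACS into six bins by GFP to DsRed ratio, PSI derived from sequencing read proportions per bin multiplied by bin number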
- Condition Label: c terminus: a fixed tail appended
Give a plain numeric answer without units written out.

Use the examples below as a reference point.
* Q18M | 2
* D14I | 2.02

As a next step, examine the variant that follows.
protein stability index reading for Q18P : 2.01
